target: TGFβ1 cell receptors on MV-1-Lu cells (mink); experiment: flow cytometry; inhibition of binding of TGFβ1-biotin to MV-1-Lu cell receptors, peptide 420 µg/ml, peptide incubated with the cells
QUANTITY_KIND: Cytometry (% inhibition) (%)

Previously resolved entries follow.
[[record]]
binder = "HEPKGYHANFCLGPCPYIWSLDT [peptide P29(313-335)]"
result_units = "%"
reading = 92.3

[[record]]
binder = "HANFCLGPCPYIWSLA [peptide P11(319-333)]"
result_units = "%"
reading = 86


P = FCLGPCPYIWSLDTA [peptide P12(322-335)]
Q = LYNQHNPGASAAPCCA [peptide P18(343-358)]
Determine, for P and Q , which has the greater value of Cytometry (% inhibition). Field: selected label. Fill in the label of the entry you choose.
P
(P: 77%, Q: 6.5%)
